# Test system: gray mold fungus (Botrytis cinerea)
# ASSAY INFO: Cucumber leaf disk preventive test against gray mold fungus
# Assay type: in vivo
# CONDITION DETAILS: Botrytis cinerea, foliar, 96 h; carboxamide compound alone, 5.0 ppm; cucumber leaf disk, 15° C., four days; read-out: preventive value (%)
Measured pest or weed control at 5 ppm by item
ASSAY ENDPOINT: pest or weed control at 5 ppm (%)

INSERT INTO assay_data (molecule, assay_system, assay_endpoint, unit_string, value) VALUES
  ('COc1ccc(C(=CC(=O)N2CCOCC2)c2ccc(Cl)cc2)cc1OC', 'gray mold fungus (Botrytis cinerea)', 'pest or weed control at 5 ppm', '%', 15),
  ('O=C(Nc1ccccc1-c1ccc(Cl)cc1)c1cccnc1Cl', 'gray mold fungus (Botrytis cinerea)', 'pest or weed control at 5 ppm', '%', 56),
  ('O=C(Nc1ccccc1)N(Cc1ccc(Cl)cc1)C1CCCC1', 'gray mold fungus (Botrytis cinerea)', 'pest or weed control at 5 ppm', '%', 15),
  ('O=C(NCCc1ncc(C(F)(F)F)cc1Cl)c1ccccc1C(F)(F)F', 'gray mold fungus (Botrytis cinerea)', 'pest or weed control at 5 ppm', '%', 45),
  ('CC(C)CC(C)c1sccc1NC(=O)c1cn(C)nc1C(F)(F)F (stereo not drawn)', 'gray mold fungus (Botrytis cinerea)', 'pest or weed control at 5 ppm', '%', 45),
  ('CC1(C(=O)Nc2ccc(O)c(Cl)c2Cl)CCCCC1', 'gray mold fungus (Botrytis cinerea)', 'pest or weed control at 5 ppm', '%', 57);
